Target: Human Serotonin Transporter (SERT) (Homo sapiens, UniProt P31645)
Construct: expressed in transfected cells; host or cells: HEK cells
Sequence (P31645 whole entry): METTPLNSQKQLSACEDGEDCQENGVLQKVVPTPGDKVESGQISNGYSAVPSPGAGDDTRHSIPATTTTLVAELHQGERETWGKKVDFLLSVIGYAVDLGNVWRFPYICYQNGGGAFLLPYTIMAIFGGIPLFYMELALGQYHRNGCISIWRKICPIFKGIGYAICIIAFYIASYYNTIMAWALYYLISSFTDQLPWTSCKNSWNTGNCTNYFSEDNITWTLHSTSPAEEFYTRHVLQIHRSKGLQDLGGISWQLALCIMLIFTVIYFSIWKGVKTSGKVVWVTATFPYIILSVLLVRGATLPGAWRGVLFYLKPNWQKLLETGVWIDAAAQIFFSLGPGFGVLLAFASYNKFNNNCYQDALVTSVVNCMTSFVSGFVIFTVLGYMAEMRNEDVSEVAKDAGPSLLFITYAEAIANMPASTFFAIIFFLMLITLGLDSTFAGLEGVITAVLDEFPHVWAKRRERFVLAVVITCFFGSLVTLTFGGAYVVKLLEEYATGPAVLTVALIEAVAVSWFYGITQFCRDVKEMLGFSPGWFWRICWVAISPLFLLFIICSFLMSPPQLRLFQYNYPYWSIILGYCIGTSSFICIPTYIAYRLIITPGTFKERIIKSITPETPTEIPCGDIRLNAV
Assay: Human Serotonin Transporter (SERT) Uptake Inhibition Assay ([3H]-Serotonin uptake in HEK cells)
Format: cell-based
Conditions: HEK293, 100 uM test compound; HEK cells expressing recombinant SERT; individual experiments separated by commas
measurement.type: inhibition at 100 µM (%)
Unit % implied. Number only.

Solved entries:
CNC(C)Cc1ccn2ccnc2c1 (stereo not drawn) :: 91.6
CC(N)Cc1ccc2ncoc2c1 (stereo not drawn) [Compound 9, 1-(benzo[d]oxazol-6-yl)propan-2-amine] :: 87.9

Prompt line: Report inhibition at 100 µM for CNC(C)Cc1ccc2scnc2c1 (stereo not drawn) please.
Response line: 91.5

Every entry's value here was drawn from patent US20260209226A1.
